Target: T1, human ASCL1 (human, UniProt P50553 1-236, limits assumed)
T1 construct: Transcription factor; also called hASCL1; immobilized human ASCL1
T1 sequence (looked up): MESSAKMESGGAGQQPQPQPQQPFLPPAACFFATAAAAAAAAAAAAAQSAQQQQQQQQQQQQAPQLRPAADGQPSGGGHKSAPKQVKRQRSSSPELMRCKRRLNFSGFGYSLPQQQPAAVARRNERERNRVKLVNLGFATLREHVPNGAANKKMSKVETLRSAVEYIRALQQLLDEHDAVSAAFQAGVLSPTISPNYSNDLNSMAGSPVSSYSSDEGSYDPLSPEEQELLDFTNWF
Experiment: screen on immobilized hASCL1 or h293-hASCL1 cells
readoutName: binding result

Example cases with answers are listed next.
SC72.94 (antibody, V domains shown, murine mAb) VH: QVQLQQPGTELVKPGASVKLSCKASAYTFTSLWIHWVKQRPGQGLEWIGDINPSIGDTYYNERFKSKATLTVDKSSSTAYMQLSSLTSEDSAVYYCTTGDSWGQGTTLTVSS VL: DIQMNQSPSSLSASLGDTITITCRASQGISIWLSWYQQKPGNIPKLLIYKASNLHTGVPPSFSGSGSGTDFTLTISSLQPEDIATYYCLQSQSYPWTFGGGTKLEIK : binds
SC72.96 (antibody, V domains shown, murine mAb) VH: EVQLQQSGPELVKPGASVKMSCKASGYTLTAYNIHWVKQSHGKSLEWIGFINPHSGGTTYNEKFKGKATLTVNKSSSTANMELRSLTSEDSAVYYCASIYYYGSSYFDHWGQGTTLTVSS VL: DIQMTQSPASLSASVGETVTMTCRASENIHSNLVWYQQKQGKSPQLLVYAATNLADGVPSRFSGSGSGSQFSLKIDSLQPEDFGSYLCQHFYGTPRTFGGGTKLEIK : binds
SC72.165 (antibody, V domains shown, murine mAb) VH: QVQLQQPGAELVRPGASVRLSCKASGYSFTSYWINWVKQRPGQGLEWIGNIYPGSSNTNYNEKFKRKATLTVDTSSSTAYMQLSSLTSDDSAVYYCARSESDYWGQGTTLTVSS VL: DIVLTQSPASLAVSPGQRATISCKASQSVGYDGDTYLSWYQQKPGQPPKLLIYGVSILESGIPARFSGSGSGTDFTLNIHPVEEEDAATYYCQQSSEDPYTFGGGTKLEIK : binds
SC72.216 (antibody, V domains shown, murine mAb) VH: QIQLVQSGPELRKPGETVKISCKASGYTFTNYPMHWVKQAPGKGFKWMGWINTYSGVPSYADDFKGRFAFSLETSASSAYLQINNLKNEDMATYFCARHNYNSYDVFAYWGQGTLVTVSA VL: DIVVTQSPASLAVSLGQRATISCKASQSVDYDGDSYMNWYQQKPGQPPKLLIYGASNLESGIPARFSGSGSGTDFTLNIHPVEEEDAATYYCQQSNEDPYTFGGGTKLEIK : binds
SC72.52 (antibody, V domains shown, murine mAb) VH: QVQLQQPGSVLVRPGASVKLSCKASGYTFTSYWMHWVKQRPGQGLEWIGEIYPNSGRTNYNEKFKGKATLTVDTSSSTAYVDLSSLTSEDSAVYYCHYYDDNYGYWGQGTTLTVSS VL: DIVITQDELSNPVTSGESVSISCRSSKSLLYKDGKTYLNWFLQRPGQSPQLLIYLMSTRASGVSDRFSGSGSGTDFTLEISRVKAEDVGVYYCQQFVEYPLTFGAGTKLELK : binds

Using the record for SC72.76 (antibody, V domains shown, murine mAb) VH: QVQLKESGPGLVAPSQSLSITCTVSDFSLTNYAVHWVRQSPGKGLEWLGVIWSDGNTDYNAPFISRLSISKDNSKSQVFFKMNSLQADDTAIYYCASYGDSAYWGQGTLVTVSA VL: DIVLTQSPASLTVSLGQRATISCRASQSVRTSNYSYMHWYQQKPGQPPKLLIKYASNLESGVPARFSGSGSGTDFTLNIHPVEEEDTATYYCQHHWEIPFTFGGGTKLEIK , report its binding result.
binds

Using the record for SC72.63 (antibody, V domains shown, murine mAb) VH: EVQLLQSGPELVKPGASVKMSCKASGYTLTDYNLHWVKQSHAKSLEWIGYINPYNGVTSYNQRFKGKATLTVNKSSSTAFMEFRSLTSEDSAVYYCVSLYYGDDPFACWGQGTLVTVST VL: DIQMTQSPASLSASVGETVTMTCRASENIYSNLAWYQQKQGKSPQLLVYAATNLADDVPSRFSGSGSGTQFSLKINSLQPEDFGIYYCHHFYGSPLTFGAGTKLELK , report its binding result.
binds

Using the record for SC72.132 (antibody, V domains shown, murine mAb) VH: EVKLVESEGGLVQPGSSMKLSCTASGFTFSDYYMAWVRQVPEKGLEWVATIDYDGSNTYYLDSLKSRFIISRDNAKNILYLQMSSLKSEDTATYYCARDGGYDEDYFDYWGQGTTLTVSS VL: DIVMSQSPSSLAVSVGEKVTLSCKSSQTLLYSSNQQNYLAWYQQKPGQSPKLLIYWASTRESGVPDRFTGSGSGTDFTLTISSVKAEDLAVYYCHQYYTYPFTFGSGTKLEIK , report its binding result.
binds

Using the record for SC72.91 (antibody, V domains shown, murine mAb) VH: QVQLQQSGPEVVKPGASVKLSCKASGYTFTTYDINWVKQRPGQGLEWIGWIYFRDGTNKYNEKFKGKATLTVDTSSSTAYMELHSLTSEDSAVYFCASVYDGYYVSGFDIMDYWGQGTSVTVSS VL: DVVLTQTPLSLPVSLGDQASIYCRSSQSIVHSNGNTYFEWYLQKPGQSPKLLIYKVSNRLSGVPDRFSGSGSGTDFTLKISRVEAVDLGIYYCFQASHVPFTFGAGTKLELK , report its binding result.
binds

Using the record for SC72.181 (antibody, V domains shown, murine mAb) VH: QVQLQQPGAEVVKPGASVRLSCKASGYTFTSYWINWVKQRPGQGLEWIGNIYPGSSSTNYNEKFKSKATLTVDTSSSTAYMQLSSLTSDDSAVYYCSRSESDYWGQGTTLTVSS VL: DIVLTQSPASLAVSLGQRATISCKASQSVDDDGGTYMSWYQQKPGQPPKLLIYGVFILESGIPARFSGSGSGTDFTLNIHPVEEEDAATYYCQQSNEDPYTFGGGTKLEIK , report its binding result.
binds

Using the record for SC72.201 (antibody, V domains shown, murine mAb) VH: EVNLEESGGGLVQPGGSMKLSCVASGFTFSNYWMNWVRQSPEKGLEWVAQIRSKSDNYATHYAESVKGRFTISRDDSKSSVYLQMNNLRSEDTGIYYCRTGPDVWGTGTTVTVSS VL: DIQMTQSPASLSVSVGETVTITCRASENIYSSLAWYQQKQGNSPQLLVYAATKLADGVPSRFSGSGSGTQYSLKINSLQSEDFGSYYCQHFWGTTWTFGGGTKLEIK , report its binding result.
binds

The reported measurements were obtained from patent US20190201542A1.
